meta.source: patent US20220127297A1

tested on: E. coli (APH(3′)Ia); experiment: MIC 50, broth micro-dilution, E. coli expressing APH(3′)Ia; assay type: cell-based, Escherichia coli; details: ATCC25922 harboring plasmid encoding APH(3′)Ia
Listing: MIC50 of selected molecules

These recorded examples may help you get a feel for the data.
1. N=C(N)NC1[C@@H](O)C(OC2[C@@H](F)[C@H](O[C@H]3OC(CN)[C@@H](O)[C@H](O)C3N)C(N)C[C@H]2NC(=O)[C@@H](O)CCN)O[C@H](CO)[C@H]1O (some centres unmarked) [ABX4006, KanaB-AHB-F-Gua] | 1 to 2 µmol/L
2. NCC[C@H](O)C(=O)N[C@@H]1CC(N)[C@@H](O[C@H]2OC(CN)[C@@H](O)[C@@H](O)C2N)[C@H](O)C1OC1O[C@H](CO)[C@@H](O)C(N)[C@H]1O (stereo partly drawn) [ABX4002, 3′Epi-KanaB-AHB] | 8 to 16 µmol/L
3. NCC[C@H](O)C(=O)N[C@@H]1CC(N)[C@@H](O[C@H]2OC(CN)[C@@H](O)[C@@H](O)C2N)[C@H](F)C1OC1O[C@H](CO)[C@@H](O)C(N)[C@H]1O (stereo partly drawn) [ABX4003, 3′Epi-KanaB-AHB-F] | 8 to 16 µmol/L
4. NCC[C@H](O)C(=O)N[C@@H]1CC(N)[C@@H](O[C@H]2OC(CN)[C@@H](O)CC2N)[C@H](F)C1OC1O[C@H](CO)[C@@H](O)C(N)[C@H]1O (some centres unmarked) | 2 to 4 µmol/L

Let us move to another entry and its MIC50.
// recorded MIC50 for NCCC(O)C(=O)NC1CC(N)C(OC2OC(CN)C(O)C(O)C2O)C(F)C1OC1OC(CO)C(O)C(N)C1O (stereo not drawn) [ABX3005, 3′Epi-KanaA-AHB-F] : 8 to 16 µmol/L

* * *

Listing: MIC50 of selected compounds
test system: Enterobacter cloacae 3MRGN (clinical bronchial aspirate isolate); experiment: MIC 50, broth micro-dilution, clinical isolate; type: cell-based; conditions: Enterobacter cloacae, E. Cloacae clinical isolate; read-out: MIC 50

1. CC(C)(C)CCNC(=N)NC1[C@@H](O)C(OC2[C@@H](F)[C@H](O[C@H]3OC(CN)[C@@H](O)CC3N)C(N)C[C@H]2NC(=O)[C@@H](O)CCN)O[C@H](CO)[C@H]1O (stereo partly shown) [ABX5025, Tobra-AHB-F-Gua 2-tBu-ethyl] | 0.5 to 1 µM
2. N=C(N)NC1[C@@H](O)C(OC2[C@@H](F)[C@H](O[C@H]3OC(CN)[C@@H](O)[C@H](O)C3O)C(N)C[C@H]2NC(=O)[C@@H](O)CCN)O[C@H](CO)[C@H]1O (stereo partly drawn) [ABX3003, 3′epi-KanaA-AHB-F-Gua] | 1 to 2 µM
3. N=C(N)NC1C(O)[C@@H](CO)OC(OC2C(F)[C@H](O[C@H]3OC(CN)[C@@H](O)CC3N)C(N)C[C@H]2NC(=O)[C@@H](O)CCN)[C@@H]1O (stereo partly shown) [ABX5006, Tobra-AHB-F-Gua] | 0.25 to 0.5 µM

Let us move to another entry and its MIC50.
// recorded MIC50 for N=C(NCc1cnc[nH]1)NC1[C@@H](O)C(OC2[C@@H](F)[C@H](O[C@H]3OC(CN)[C@@H](O)CC3N)C(N)C[C@H]2NC(=O)[C@@H](O)CCN)O[C@H](CO)[C@H]1O (stereo partly shown) [ABX5050, Tobra-AHB-F-Gua imidazol-5-yl methyl] : 1 to 2 µM
